- EXPERIMENT SUMMARY: LEN plasma concentrations during oral bridging period, CALIBRATE (Phase 2, ARV-naive PWH)
- Type: in vivo
- TEST CONTEXT: human, plasma, oral, 300 mg, Treatment Group 1, Week 20, read-out: Lower 90% CI of Concentration
- Source text: The objective of this study was to evaluate the pharmacokinetics (PK) of LEN during oral bridging period (OBP) to assess the adequacy of 300-mg PO once-weekly (QW) regimen for maintaining therapeutic concentrations between missed SC LEN doses. During OBP, sparse PK samples were collected at the start of OBP and every ˜10-12 weeks (without regard to a prespecified time since dose) until SC LEN was resumed. […]
ASSAY READOUT: concentration at 20 week (ng/mL)
Number in ng/mL, nothing else.

// query concentration at 20 week value for entry CC(C)(C#Cc1ccc(-c2ccc(Cl)c3c(NS(C)(=O)=O)nn(CC(F)(F)F)c23)c([C@H](Cc2cc(F)cc(F)c2)NC(=O)Cn2nc(C(F)(F)F)c3c2C(F)(F)[C@@H]2C[C@H]32)n1)S(C)(=O)=O [LEN]
39.6
